Data provenance is PubChem BioAssay (NCATS).

TEST_DETAILS: qHTS profiling of the MIPE4 collection as inhibitors of Plasmodium falciparum (3D7) proliferation (AID 743344);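 further: scaled between DMSO vehicle wells and 0.29 µM artemisinin as full inhibition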
PROTOCOL_CONDITIONS: P. falciparum 3D7 in erythrocytes, SYBR Green DNA fluorescence, 72 h; at 28.5 µM unless noted
RESULT_TYPE: parasite growth, % of DMSO control (%)
Express the result in % but write the number alone.

Solved entries:
S=c1nc[nH]c2nc[nH]c12 | 68.3
COc1cc(Nc2c(C#N)cnc3cc(OCCCN4CCN(C)CC4)c(OC)cc23)c(Cl)cc1Cl | 6.35
O=c1c(O)c(-c2cc(O)c(O)c(O)c2)oc2cc(O)cc(O)c12 | 93.5

Please turn your attention to the following entry.
Query string: Quick one: parasite growth, % of DMSO control for Nc1ccn([C@@H]2O[C@H](CO)[C@@H](O)C2O)c(=O)n1 (stereo not given in full) ?
Result string: 89.3
